Assay: Ocular biodistribution study following ocular administration
Type: in vivo, Dutch-Belted rabbits
Settings: male, Dutch-Belted, rabbit, posterior sclera and choroid, other: ocular administration, 0.08 mg/eye, formulation G, 0.08 mg/eye once, 3 hrs, An#108 right eye; read-out: Squalamine in posterior sclera and choroid
Assay endpoint: concentration at 3 h (ng/g)

INSERT INTO assay_data (structure_notation, quantitative_result) VALUES
  ('CC(C)[C@@H](CC[C@@H](C)[C@H]1CC[C@H]2[C@@H]3[C@H](O)C[C@H]4C[C@@H](NCCCNCCCCN)CC[C@]4(C)[C@H]3CC[C@]12C)OS(=O)(=O)O', 34.6);
